Values were extracted from ChEMBL document CHEMBL4387709.

- Tested on: enterovirus D68
- Test summary: Antiviral activity against Enterovirus D68 US/KY/14-18953 infected in human RD cells assessed as inhibition of virus-induced cytopathic effect incubated for 5 mins under shaking condition and measured after 3 days by neutral red dye-based photometric method
- Assay type: functional, organism-based
- Condition label: Enterovirus D, US/KY/14-18953, RD
One threshold, 1000 nM, splits the recorded EC50 values: lower ones are met, equal or higher ones are not met.

CCN(CC)CCNC(=O)c1cc(-c2ccccc2)nc2ccc(F)cc12 = not met
CCN(CC)CCNC(=O)c1cc(-c2ccc3c(c2)OCCO3)nc2ccccc12 = not met
CCN(CC)CCNC(=O)c1cc(-c2ccoc2)nc2ccccc12 = not met
CCN(CC)CCNC(=O)c1cc(-c2ccc(Cl)s2)nc2ccccc12 = met

Now examine the next entry.
I'd appreciate it if you could check whether `CCOCCOc1cc(C(=O)NCCN(CC)CC)c2ccccc2n1` has EC50 smaller than 1000 nM.
not met
